Test system: HepG2
Assay: GSK_TCMDC: Percent inhibition of human HepG2 cell line. Test compounds present at 10uM.
Assay type: functional
Field: Inhibition. Provide a value for each of the compounds that follow.
Answer in %, number only, no unit symbol.

*Q* Lab request: please report Inhibition under test system HepG2 for COc1ccc2nccc([C@@H](O)CN3CCC(NCc4ccc5scnc5c4)CC3)c2c1.O=C(O)C(=O)O
*A* 17

*Q* What measured Inhibition is associated with N#Cc1cccc(C(=O)Nc2cccc(-c3cccc(CN4CCNCC4)c3)c2)c1.O=C(O)C(F)(F)F on HepG2?
*A* 37

*Q* Identify the measured Inhibition of CC(C)n1c(C2CCN(CC3CCN(C(=O)/C=C/c4ccc(Cl)c(Cl)c4)CC3)CC2)nc2ccccc21 for HepG2.
*A* 36

*Q* Lab note: need Inhibition for CCOc1ccc(OCC)c(N2CCN(CCCCNC(=O)c3ccc(NC(=O)c4ccc(Cl)cc4)cc3)CC2)c1 on HepG2, anyone have it?
*A* 13

*Q* // lookup Inhibition | system=HepG2 | key= O=C(NCCCCCN1CCC(c2c[nH]c3ccccc23)CC1)c1ccc(Cl)c(Cl)c1
*A* 48

*Q* Test system HepG2; read-out Inhibition; what value for CCCOc1ccc(N2C(N)=NC(N)=NC2(C)C)cc1.Cl ?
*A* 1

*Q* # get_value(readout= Inhibition, system= HepG2) for CCc1n[nH]c(C(=O)Nc2cccc(N3CCCC3)c2)c1C
*A* 15

*Q* Recall the recorded Inhibition for CNC(=O)c1cc(S(=O)(=O)N2CCN(c3ccccn3)CC2)cs1 with HepG2 and state it.
*A* 0

*Q* Value wanted: Inhibition (HepG2) of entry N#Cc1ccc(-c2ccc(C(=O)NCCCCN3CCC(c4ccc5c(c4OCC(N)=O)CCCC5)CC3)nc2)cc1
*A* 21

----------
Provide the recorded Inhibition for the entries that follow.
Tested on: Plasmodium falciparum
Assay: GSK_TCMDC: Inhibition of Plasmodium falciparum 3D7 in whole red blood cells, using parasite LDH activity as an index of growth. Test compounds present at 2uM
Assay type: functional
Express it in %; write the number only.

*Q* Bench note: what Inhibition did CC(C)c1ccc(S(=O)(=O)N(c2ccc3c(c2)OCO3)C2CCN(Cc3ccccc3)C2)cc1 (centres undefined) show?
*A* 100

*Q* Name the recorded Inhibition for Cc1cc(N[C@@H](CC(C)C)C(=O)NCCOc2ccccc2)nc(NCCc2ccc(F)cc2)n1.O=C(O)C(F)(F)F .
*A* 95

*Q* Quick one: Inhibition of COc1ccc2nc(-c3ccccc3)cc(NCCCNc3cc(-c4ccccc4)nc4ccc(OC)cc34)c2c1.Cl ?
*A* 99

*Q* What value of measured Inhibition is listed for CC(C)COc1ccc(Cl)cc1Cc1nc(-c2nc3ccc(N4CCN(C)CC4)nc3[nH]2)cs1.Cl ?
*A* 99

*Q* May I ask what Inhibition has been recorded for CN(C)c1ccc(C=C2SC(=O)N=C2Nc2ccccc2)cc1 ?
*A* 97

*Q* I am curious: what Inhibition value has been reported for CC[C@H](C)CNC(=O)c1cncc(-c2cccc(CNCCCc3ccccc3)c2)c1.O=C(O)C(F)(F)F ?
*A* 95

*Q* Can you share its Inhibition? I mean this compound: COc1ccc(CCN(C)CCCN2CCC(NC(=O)c3cccc4c(=O)c5ccccc5sc34)CC2)cc1OC.O=C(O)C(=O)O
*A* 97

*Q* Bench note: what Inhibition did O=C(CN1CCN(C(=O)c2ccco2)CC1)Nc1ccc(Br)cc1Cl show?
*A* 88

*Q* Any idea what its Inhibition is? The compound is COc1ccc2nccc(CCC3(O)CCC(NCc4cc5c(cc4F)SCC(=O)N5)CC3)c2c1 (centres undefined)
*A* 87

*Q* I have this compound here, CC(C)COc1ccc(Cl)cc1Cc1ccc(-c2nc3ccc(Br)cc3[nH]2)o1.Cl , and I need its recorded Inhibition.
*A* 80

*Q* Can you share its Inhibition? I mean this compound: Cl.N#CC1(CCCNCCc2ccc(O)cc2)CCCc2c(O)cccc21 (centres undefined)
*A* 95

*Q* What does the record list as Inhibition for Cc1cccc(CN2CCCN(Cc3cccc(C(=O)Nc4ccc(C(C)(C)C)cc4)c3)CC2)c1.O=C(O)C(F)(F)F ?
*A* 89

*Q* Please give the measured Inhibition for this compound: CC1C(c2cccc(Cl)c2)OCC(C)(C)N1C(=O)CCN1CCCCC1.Cl (centres undefined)
*A* 88

*Q* Query (compound): CC(=O)C=C1CC(=O)N(C[C@@H](O)[C@H]2O[C@@H]3OC(C)(C)O[C@@H]3[C@H]2O)c2ccccc2N1 ; field requested: Inhibition
*A* 90

*Q* # query: Inhibition of entry Cc1ccc(CN(Cc2ccc(C(=O)N(C)C)cc2)Cc2ccc3c(c2)OCCO3)cc1C
*A* 91

*Q* Quick check: Inhibition of CCOC(=O)c1c(C)n(-c2ccccc2)c2ccc(OC(=O)COc3ccc(Cl)cc3Cl)cc12 ?
*A* 99

*Q* Can you look up the measured Inhibition of CCCSc1nc2c(c(=O)n1CCc1ccccc1)C1(CCCC1)Cc1ccccc1-2 for me?
*A* 99

*Q* Need Inhibition, item O=C(Nc1ccc(OC2CCN(Cc3ccsc3)CC2)c(Cl)c1)c1ccco1.O=C(O)C(F)(F)F
*A* 87

*Q* Consider the compound O=C(/C=C/c1ccc(Cl)c(Cl)c1)NCCCCCN1CCC(NC(=S)Nc2cccc(Cl)c2)CC1 and give its measured Inhibition.
*A* 99

----------
Test system: HepG2
Test: GSK_TCMDC: Percent inhibition of human HepG2 cell line. Test compounds present at 10uM.
Format: functional
Please mark yes (1) if the recorded Inhibition is equal to or greater than 20%, and no (0) if it falls below.

*Q* Entry CCc1nc2c(N)nc(N)nc2nc1-c1ccc(OC)cc1 : is its Inhibition no less than 20%?
*A* yes (1)

*Q* Kindly determine if Inhibition recorded for CCN(CC)CCCC(C)Nc1ccnc2[nH]c3ccccc3c12 (stereo not given) is above or exactly 20%.
*A* no (0)

*Q* Could you verify whether the entry COc1ccc2nccc(NCC3(O)CCC(NCc4ccc5c(n4)NC(=O)CS5)CC3)c2n1.Cl (stereo not given) shows Inhibition of no less than 20%?
*A* no (0)

*Q* # check: Inhibition of CCN(CC)c1ccc(C(=O)Cn2ccc(=N)cc2)cc1 is greater than or equal to 20%
*A* yes (1)

*Q* Determine whether measured Inhibition meets or exceeds 20% for CCOc1cc(C)ccc1NC1CCN(CCCCNC(=O)c2ccc(NC(=O)c3ccc(Cl)cc3)cc2)CC1
*A* no (0)

----------
For each of the compounds below, state its Inhibition.
Tested on: Plasmodium falciparum
Assay: GSK_TCMDC: Inhibition of Plasmodium falciparum 3D7 in whole red blood cells, using parasite LDH activity as an index of growth. Test compounds present at 2uM
Assay type: functional
# value in %; strip the unit string

*Q* # query: Inhibition of entry Nc1nc(O)c2c(n1)CCc1c(Br)cccc1-2
*A* 97

*Q* Consider the compound shown here: O=C(O)C(F)(F)F.O=S(=O)(NCCN1CCCC1)c1ccc(-c2ccc(CN3Cc4ccccc4C3)cc2)s1 What is its recorded Inhibition?
*A* 89

*Q* # Inhibition lookup, item Cc1nc(C)c(-c2ccc(Oc3ccc(OC(F)(F)F)cc3)cc2)c(OC(=O)c2ccc(CN(C)C)cc2)c1Cl
*A* 98

*Q* Quick check: Inhibition of COc1ccc2c(N/N=C/c3cccc([N+](=O)[O-])c3)ccnc2c1 ?
*A* 100

*Q* Given the compound CCCc1cc(OC)c(CC2c3cccc(O)c3CCN2C)cc1OC.Cl (centres undefined) , what is its reported Inhibition?
*A* 100

*Q* Consider the compound O=C(Nc1ccc(F)cc1)c1ccc(C(=O)NC2CCN(CC3CCCCC3)CC2)cc1.O=C(O)C(F)(F)F and give its measured Inhibition.
*A* 99

*Q* Any idea what its Inhibition is? The compound is O=C(NC1CC1)c1cnc(N2CCC(Cc3ccccc3)CC2)c(Cl)c1.O=C(O)C(F)(F)F
*A* 96

*Q* Reported Inhibition, compound COc1ccc(C(=O)N2CCC(CN3CCOC(c4ccccc4)(c4ccccc4)C3)CC2)cc1 : ____
*A* 95

*Q* Can you share its Inhibition? I mean this compound: CC(C)COc1ccc(Cl)cc1Cc1ccc(-c2nc3c(F)cccc3[nH]2)o1
*A* 98

*Q* Requested read-out: Inhibition. Entry: CCc1nc(N)nc(N)c1-c1cccc(Cl)c1
*A* 94

*Q* Which value of Inhibition has been reported for COc1ccc(NC(=O)CCNc2cc(C)nc(NCCOc3ccccc3)n2)cc1.O=C(O)C(F)(F)F in the records?
*A* 96

*Q* Inhibition for N#Cc1ccc(NC(=O)c2ccc(C(=O)NCCCCN3CCC(c4ccc5c(c4OCCOC4CCCCO4)CCCC5)CC3)cc2)cc1 (centres undefined) ?
*A* 99

*Q* Item under review: O=C(Nc1ccc(OC2CCN(Cc3ccccc3)CC2)c(Cl)c1)c1cccs1.O=C(O)C(F)(F)F . Reported Inhibition?
*A* 96

*Q* // returns reported Inhibition for input CC1CN(C(=O)c2sc3ccccc3c2Cl)CC(C)O1 (centres undefined)
*A* 100

*Q* Record request: Inhibition value, item O=C(Nc1ccc(Cl)cc1)c1ccc(CN2CCCN(Cc3cccc(F)c3)CC2)cc1.O=C(O)C(F)(F)F
*A* 91

*Q* Look up Inhibition for this compound: CN(C)CCNC(=O)NC1CN(c2ncnc3cc(-c4ccccc4)sc23)C1.O=C(O)C(F)(F)F
*A* 100

*Q* # get_value(readout='Inhibition', item= CCCc1ccc(NC(=O)c2ccc(CN3CCCN(Cc4ccc(OC)cc4)CC3)cc2)cc1.O=C(O)C(F)(F)F )
*A* 81

*Q* I would be grateful if you could share the reported Inhibition for Cl.N=C(NC1CC1)c1ccc2[nH]c(CCCCCc3nc4cc(C(=N)NC5CC5)ccc4[nH]3)nc2c1 .
*A* 89

*Q* Given the entry CCOCCCn1c(=N)c(C(=O)NCc2ccc(F)cc2)cc2c(=O)n3cccc(C)c3nc21 , report its measured Inhibition.
*A* 100
